Experiment Description: Toxicity liver stage against HepG2, at 10uM
Assay type: cell-based
Design: test concentration 10 uM, cell line HepG2-A16-CD81EGFP
Condition Parameters: human, HepG2-A16-CD81EGFP cells; read-out: INHIBITION
Listed compounds paired with reported cytotoxicity at 10 µM
Reply numerically in %, unit not repeated.

Q: Return the recorded cytotoxicity at 10 µM value; entry: `Cc1nc(C)c(CC(=O)N2C[C@@H](C(=O)O)[C@H](c3ccccc3C)C2)s1`
A: -120

Q: Specify measured cytotoxicity at 10 µM for NC(=O)C1(Cc2ccccc2-c2ccccc2)CCCN(CC2CC2)C1 (configuration not stated) .
A: 1.67
